# assay.text: Cytotoxicity against Sprague-Dawley rat Cerebral cortex neuron assessed as LDH activity at 50 uM incubated for 24 hrs by LDH assay (reference value: […])
# Type: tissue-based
measurement.label: Activity
Please state the value followed by its unit.

Example cases with answers are listed next.
O=C(CCCC[C@@H]1CCSS1)N1CCN(Cc2ccccc2)CC1 | 0.3 mU/ml
O=C(CCCCC1CCSS1)N1CCN(Cc2ccc(F)cc2)CC1 (stereo unspecified) | 0.34 mU/ml
COc1ccc(CN2CCC(OC(=O)CCCCC3CCSS3)CC2)cc1 (stereo unspecified) | 0.34 mU/ml
COc1ccc(CN2CCN(C(=O)CCCCC3CCSS3)CC2)cc1 (stereo unspecified) | 0.34 mU/ml
O=C(CCCCC1CCSS1)OC1CCN(Cc2ccccc2)CC1 (stereo unspecified) | 0.3 mU/ml

Item under review: O=C(CCCCC1CCSS1)N1CCN(Cc2ccccc2)CC1 (stereo unspecified) . Reported Activity?
0.34 mU/ml
